Test: Toxicity in po dosed C57BL/6 mouse assessed as maximum tolerated dose administered as single dose measured after 48 hrs
Format: organism-based
Conditions: in vivo
Quantity Measured: MTD at 48 h
Kindly format the answer as number then unit.

# lookup: MTD at 48 h of CCN1C(=O)[C@@H](NC(=O)c2cccc(C(F)(F)F)c2)[C@@H](c2ccc(F)cc2)c2c(CN)nn(-c3ccccc3)c21 (relative stereo)
200 mg/kg

----------
Test: Toxicity in po dosed C57BL/6 mouse assessed as maximum tolerated dose administered as 10 consecutive doses measured after 48 hrs
Format: organism-based
Details: in vivo
Quantity Measured: MTD at 48 h (mg/kg)
Express your answer in mg/kg, writing the number without its unit.

Look up MTD at 48 h: CCN1C(=O)[C@@H](NC(=O)c2cccc(C(F)(F)F)c2)[C@@H](c2ccc(F)cc2)c2c(CN)nn(-c3ccccc3)c21 (relative stereo)
50

----------
Experiment: in vivo
Settings: C57BL/6, mouse, plasma
Description: Plasma clearance in C57BL/6 mouse
Quantity Measured: clearance (mL/min/kg)
Please reply with the bare figure in mL/min/kg and do not write the unit itself.

State the recorded clearance for this entry: CCN1C(=O)[C@@H](NC(=O)c2cccc(C(F)(F)F)c2)[C@@H](c2ccc(F)cc2)c2c(CN)nn(-c3ccccc3)c21 (relative stereo)
20
